Recorded values, source the Human Domainome abundance scans (Beltran et al. 2025).

B1: KAT8 regulatory NSL complex subunit 2, residues 28 to 91; numbered along this chain, Q9H9L4 (parent)
chain: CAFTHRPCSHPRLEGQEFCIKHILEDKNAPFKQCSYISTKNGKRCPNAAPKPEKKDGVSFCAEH

Variants of: B1
assay-name: abundance fitness (aPCA) (normalised: wild type 0, dead -1); higher = more abundant; growth selection in yeast, the domain comes from the species named
experimental-setup: Homo sapiens
Give abundance fitness for every item shown.
Give bare numbers.

Field: example entries. Status: answers known.
CAFTHRPCSHPRLEGQEFCIKHILEDKNAPFAQCSYISTKNGKRCPNAAPKPEKKDGVSFCAEH [K32A] = -0.075
CAFTHRPCSHPRLEGQEFCIKHILEDKNAPFKQCSYISTKNGKRCPNAAPKPEKKDGVSFCARH [E63R] = -0.024
CAFTHRPCSHPRLEGQEFCIKHILEDKNAPFKQCSYISTKNGKRCPNAKPKPEKKDGVSFCAEH [A49K] = -0.321
CAFTHRPCSHPRLEGQEFCIKHILEDKNQPFKQCSYISTKNGKRCPNAAPKPEKKDGVSFCAEH [A29Q] = -0.278
CAFTHRPCSHPRLEGQEFCIKHILEDKNAPFKQCSYISTKNGKRCPNAAPKPEKKDGVSFCAEY [H64Y] = -0.781

I'm hoping you can list abundance fitness for every variant here, please.
1. CAFTIRPCSHPRLEGQEFCIKHILEDKNAPFKQCSYISTKNGKRCPNAAPKPEKKDGVSFCAEH [H5I]
2. CAFTHRPCSHPRLEGQEFCIKHILEDKNAPFKQCSYISTKNGKRCPNAAPKPEKKRGVSFCAEH [D56R]

Reply text:
1. -0.084
2. -0.063

I'm hoping you can list abundance fitness for every variant here, please.
1. CAFTHRPCSHPRLEGMEFCIKHILEDKNAPFKQCSYISTKNGKRCPNAAPKPEKKDGVSFCAEH [Q16M]
2. CAFTHRPCSHPRLEGQEFCIKHILEDKNAPFKQCSYISTKNGQRCPNAAPKPEKKDGVSFCAEH [K43Q]

Reply text:
1. -0.146
2. -0.057

I'm hoping you can list abundance fitness for every variant here, please.
1. CAFTHRPCSHPRLEGQEFCIKHILEDKNAPFKQCSYISTKNGKECPNAAPKPEKKDGVSFCAEH [R44E]
2. CAFTHRPCSHPRLEGQEFCIKHILEDKNAPFKQCSYDSTKNGKRCPNAAPKPEKKDGVSFCAEH [I37D]
3. CAFTHRPCSHPRLEGQEFCIKHILEDKNAPFKQCSYIQTKNGKRCPNAAPKPEKKDGVSFCAEH [S38Q]
4. CAFTHRPCSHPRLEGQEFCIKHILEDKNAPFKQCSYISTKNGKRCPNAAPKPEKKDGVSFCFEH [A62F]
5. CAFTHRPCSHPRLEGQEFCIKHILEDKNAPFKQCSYISTKNGKRCPNAAGKPEKKDGVSFCAEH [P50G]
6. CAFTHRPCSHPRLEGQEFCIKHIHEDKNAPFKQCSYISTKNGKRCPNAAPKPEKKDGVSFCAEH [L24H]
7. CAFTHRPCSHPRLEGQEFCIKHILEDKNAPFKQCSYISTKNGKTCPNAAPKPEKKDGVSFCAEH [R44T]
8. CAFTHRPCSHPRLEPQEFCIKHILEDKNAPFKQCSYISTKNGKRCPNAAPKPEKKDGVSFCAEH [G15P]

Reply text:
1: -0.139; 2: -0.302; 3: -0.08; 4: -0.111; 5: -0.211; 6: -0.227; 7: -0.029; 8: -0.543

I'm hoping you can list abundance fitness for every variant here, please.
1. CAFTHRPCEHPRLEGQEFCIKHILEDKNAPFKQCSYISTKNGKRCPNAAPKPEKKDGVSFCAEH [S9E]
2. CAFTHRPCSHPRLEGQEFCIKHILEDKNAPFKQCSYISTKNGKRCPNAAPKPEKKDGTSFCAEH [V58T]
3. CAFTHRPCSHPRLEGQEFCIKHILEDKNAPFKQCSYISTKNLKRCPNAAPKPEKKDGVSFCAEH [G42L]
4. CAFTHRPCSHPRLEGQEFCIKHILEDINAPFKQCSYISTKNGKRCPNAAPKPEKKDGVSFCAEH [K27I]
5. CAFTHRPWSHPRLEGQEFCIKHILEDKNAPFKQCSYISTKNGKRCPNAAPKPEKKDGVSFCAEH [C8W]

Reply text:
1. -0.191
2. -0.1
3. -0.125
4. -0.091
5. -1.24
